Molecular target: Histone deacetylase 2 (Homo sapiens, UniProt Q92769)
Sequence (Q92769 whole entry): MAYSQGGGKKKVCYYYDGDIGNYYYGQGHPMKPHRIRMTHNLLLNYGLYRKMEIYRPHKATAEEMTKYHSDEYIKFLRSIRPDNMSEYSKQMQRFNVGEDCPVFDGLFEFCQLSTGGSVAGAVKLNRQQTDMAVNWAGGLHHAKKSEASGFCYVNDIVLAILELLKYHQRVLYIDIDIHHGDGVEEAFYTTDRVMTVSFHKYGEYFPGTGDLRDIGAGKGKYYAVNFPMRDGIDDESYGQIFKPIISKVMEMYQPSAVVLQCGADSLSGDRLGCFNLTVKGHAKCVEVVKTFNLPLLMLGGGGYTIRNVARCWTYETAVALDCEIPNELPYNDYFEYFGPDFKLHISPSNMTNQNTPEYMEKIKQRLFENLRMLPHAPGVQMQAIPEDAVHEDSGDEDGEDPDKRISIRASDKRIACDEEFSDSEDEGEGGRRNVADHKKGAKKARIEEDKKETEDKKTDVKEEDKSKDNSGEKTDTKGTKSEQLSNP
Assay: Inhibition of recombinant human HDAC2 using fluorescently-labeled acetylated histone peptide as substrate by microfluidic mobility shift assay
ENDPOINT LABEL: IC50 (nM)
Numbers only; they are read as nM.

Inquiry: Requested read-out: IC50. Entry: C=C1CN(Cc2ccc(C(=O)Nc3ccccc3N)cc2)C(=O)c2ccccc21
Reply text: 30

---

Biological target: Histone deacetylase 3/NCoR1 (Homo sapiens)
Sequence (O15379 whole entry, the tested form may be a part): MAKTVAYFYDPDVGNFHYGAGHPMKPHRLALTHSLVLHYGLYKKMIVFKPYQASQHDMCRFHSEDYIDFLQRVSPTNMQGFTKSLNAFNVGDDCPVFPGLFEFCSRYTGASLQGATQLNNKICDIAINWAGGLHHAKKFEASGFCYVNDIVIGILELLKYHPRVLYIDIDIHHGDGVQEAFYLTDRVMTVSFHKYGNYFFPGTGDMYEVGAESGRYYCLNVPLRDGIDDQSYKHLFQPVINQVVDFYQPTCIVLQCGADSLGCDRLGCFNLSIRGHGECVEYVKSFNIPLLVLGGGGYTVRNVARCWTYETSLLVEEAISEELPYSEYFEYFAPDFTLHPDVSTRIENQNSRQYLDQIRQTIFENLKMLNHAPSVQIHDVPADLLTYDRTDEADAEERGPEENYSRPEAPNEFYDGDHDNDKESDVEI
Sequence (O75376 whole entry, further chain, the tested form may be a part): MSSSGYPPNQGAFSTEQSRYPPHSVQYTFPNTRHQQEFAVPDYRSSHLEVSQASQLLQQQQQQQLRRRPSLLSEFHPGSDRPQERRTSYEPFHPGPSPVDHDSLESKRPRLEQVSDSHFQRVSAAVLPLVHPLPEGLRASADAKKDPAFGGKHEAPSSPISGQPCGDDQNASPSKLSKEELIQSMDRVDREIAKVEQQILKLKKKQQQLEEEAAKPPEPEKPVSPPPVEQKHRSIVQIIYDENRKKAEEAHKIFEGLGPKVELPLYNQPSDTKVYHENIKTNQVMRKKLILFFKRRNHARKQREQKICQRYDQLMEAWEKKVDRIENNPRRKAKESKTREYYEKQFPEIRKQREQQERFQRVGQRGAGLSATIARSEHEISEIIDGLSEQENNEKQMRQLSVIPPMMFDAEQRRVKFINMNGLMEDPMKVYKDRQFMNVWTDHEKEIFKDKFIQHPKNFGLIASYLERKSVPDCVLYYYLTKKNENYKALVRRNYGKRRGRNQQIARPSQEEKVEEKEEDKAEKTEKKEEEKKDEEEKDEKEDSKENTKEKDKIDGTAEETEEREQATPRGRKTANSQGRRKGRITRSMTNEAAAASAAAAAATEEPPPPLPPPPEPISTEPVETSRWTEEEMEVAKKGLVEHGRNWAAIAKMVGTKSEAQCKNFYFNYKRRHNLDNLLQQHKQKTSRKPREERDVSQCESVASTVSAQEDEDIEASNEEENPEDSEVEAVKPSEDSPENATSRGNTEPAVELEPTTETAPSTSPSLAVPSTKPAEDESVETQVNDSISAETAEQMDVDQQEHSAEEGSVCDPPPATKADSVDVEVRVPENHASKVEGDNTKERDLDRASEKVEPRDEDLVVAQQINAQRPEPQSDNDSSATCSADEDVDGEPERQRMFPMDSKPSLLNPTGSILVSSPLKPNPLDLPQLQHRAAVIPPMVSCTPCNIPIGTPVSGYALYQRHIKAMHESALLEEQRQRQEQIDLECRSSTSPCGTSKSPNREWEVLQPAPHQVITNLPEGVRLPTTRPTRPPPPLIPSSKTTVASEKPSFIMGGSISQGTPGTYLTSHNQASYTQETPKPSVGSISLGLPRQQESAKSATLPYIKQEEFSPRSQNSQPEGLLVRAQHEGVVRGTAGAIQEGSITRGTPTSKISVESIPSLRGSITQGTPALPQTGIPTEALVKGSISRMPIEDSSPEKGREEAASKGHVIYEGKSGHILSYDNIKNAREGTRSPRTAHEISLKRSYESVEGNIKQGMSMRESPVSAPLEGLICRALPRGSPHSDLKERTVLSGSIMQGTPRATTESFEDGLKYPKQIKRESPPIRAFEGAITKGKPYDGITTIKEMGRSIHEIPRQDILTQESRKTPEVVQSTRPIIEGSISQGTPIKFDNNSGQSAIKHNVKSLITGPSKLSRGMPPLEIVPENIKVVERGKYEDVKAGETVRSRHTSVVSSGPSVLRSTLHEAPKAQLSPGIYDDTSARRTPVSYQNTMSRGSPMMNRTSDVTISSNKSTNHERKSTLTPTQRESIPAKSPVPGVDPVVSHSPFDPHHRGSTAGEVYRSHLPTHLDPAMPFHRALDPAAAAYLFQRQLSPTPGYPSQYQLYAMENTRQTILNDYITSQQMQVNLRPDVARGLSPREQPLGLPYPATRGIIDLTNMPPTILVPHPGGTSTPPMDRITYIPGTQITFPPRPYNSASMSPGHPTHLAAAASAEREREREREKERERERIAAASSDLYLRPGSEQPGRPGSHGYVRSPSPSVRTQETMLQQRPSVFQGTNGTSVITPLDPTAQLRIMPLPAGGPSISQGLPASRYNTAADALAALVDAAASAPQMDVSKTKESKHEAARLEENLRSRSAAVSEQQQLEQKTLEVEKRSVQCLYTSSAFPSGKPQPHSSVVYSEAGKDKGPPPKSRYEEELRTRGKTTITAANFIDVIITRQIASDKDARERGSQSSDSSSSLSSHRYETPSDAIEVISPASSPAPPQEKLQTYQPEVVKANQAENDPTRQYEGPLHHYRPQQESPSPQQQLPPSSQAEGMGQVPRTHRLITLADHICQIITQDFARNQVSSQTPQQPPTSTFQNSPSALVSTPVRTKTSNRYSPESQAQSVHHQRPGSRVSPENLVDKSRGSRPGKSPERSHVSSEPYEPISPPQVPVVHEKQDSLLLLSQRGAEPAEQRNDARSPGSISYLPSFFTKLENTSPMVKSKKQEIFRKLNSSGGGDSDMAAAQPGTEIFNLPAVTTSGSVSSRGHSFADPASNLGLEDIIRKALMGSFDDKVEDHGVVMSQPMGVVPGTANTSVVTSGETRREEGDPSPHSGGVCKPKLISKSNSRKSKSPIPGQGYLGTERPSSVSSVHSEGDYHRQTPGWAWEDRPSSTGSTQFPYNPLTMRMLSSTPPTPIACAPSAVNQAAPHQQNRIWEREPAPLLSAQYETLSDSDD
Assay: Inhibition of human recombinant HDAC3/GST-tagged NCOR1 DAD (397 to 503 residues) expressed in baculovirus expression system by fluorescence assay
ENDPOINT LABEL: pIC50
Schema: pIC50 number; meaning minus log10 of the concentration expressed in molar units.

Inquiry: Which pIC50 is reported for this compound? Nc1ccccc1NC(=O)c1ccc(-c2cn(CCc3ccsc3)nn2)cc1
Reply text: 6.62
